test: Inhibition of [3H]-cytisine binding to neuronal nicotinic acetylcholine receptor of rat brain
pKi: −log10 of the molar value.
measurementType: pKi

> print(dat)
                                    compound  measurementtype  recordedvalue
 1  Cc1cc([C@@H]2CCC3CCC2N3)on1 (stereo partly specified)              pKi           4.59
 2  Cc1cc(C2CC3CCC(C2)N3)on1 (stereo in doubt; 15b)              pKi           6.83
 3  Cc1cc(C2=CC3CCC(C2)N3)on1 (stereo unspecified)              pKi           6.49
 4                      CN1CCC[C@H]1c1ccccc1              pKi           8.10
 5  Clc1ccc([C@H]2CCC3CCC2N3)cn1 (stereo partly specified)              pKi           8.98
 6  Cc1cc(C2CC3CCC(C2)N3)on1 (stereo in doubt; 15a)              pKi           4.74
 7  Clc1ccc(C2CC3CC[C@@H]2N3)cn1 (stereo partly specified)              pKi           9.10
 8  Cc1cc(C2CCC3CC[C@@H]2N3)on1 (stereo partly specified)              pKi           8.52
 9  Cc1cc(C2CC3CCC(C2)N3C)on1 (stereo unspecified)              pKi           6.71
10  Cc1cc(C2CC[C@H]3CCC2N3C)on1 (stereo partly specified)              pKi           5.83
11  Cc1cc(C2=CC3CCC(C2)N3C)on1 (stereo unspecified)              pKi           6.14
